In this section, each of the compounds is paired with its reported TGI.
- Test system: MCF7 breast
- assay.text: NCI tumour cell line growth inhibition, 48 h

| compound | study.target | obs.value |
| --- | --- | --- |
| Oc1c(NCn2nc(CCCCCCCCc3nn(CNc4ccc5ccccc5c4O)c(=S)o3)oc2=S)ccc2ccccc12 | MCF7 breast | > 100 µM |
| COC(=O)N[C@@H](C)CNc1nccc(-c2cn(C(C)C)nc2-c2cc(Cl)cc(NS(C)(=O)=O)c2F)n1 | MCF7 breast | > 100 µM |
| Cc1cccc(NC(=S)Nc2cccc(Cl)c2)n1 | MCF7 breast | > 100 µM |

[Q] Would you mind telling me what TGI value was observed for CCOC(=O)c1cnc2n(c1=O)[C@H]1CCCC[C@@H]1N2 ?
[A] > 100 µM

[Q] Would you mind telling me what TGI value was observed for C/C(CC(O)(C(F)(F)F)C(F)(F)F)=N\O ?
[A] > 10 µM

[Q] Would you mind telling me what TGI value was observed for O=C(OCC1=CC(=O)c2ccccc2C1=O)c1ccccc1 ?
[A] 26.8 µM

[Q] Would you mind telling me what TGI value was observed for CCOC(=O)/C=C/c1ccc([N+](=O)[O-])o1 ?
[A] 17.2 µM

[Q] Would you mind telling me what TGI value was observed for C#CC(O)/C=C/C(O)CCCC(O)CC#CC(O)C#CCCCCC(O)/C=C/CCCC(=O)CCCCCCCCCCCCCCCC(O)C(O)C#CC(=O)O (stereo unspecified) ?
[A] > 25 µM

[Q] Would you mind telling me what TGI value was observed for O=C(NNC(=O)c1ccc(Cl)cc1NC(=O)C12CC3CC(CC(C3)C1)C2)c1ccc(Cl)cc1 ?
[A] 87.5 µM

[Q] Would you mind telling me what TGI value was observed for CC(C)(C)c1cc(C(C)(C)C)c(SC2OC(CO)C(O)C(O)C2O)c(O)c1O (stereo unspecified) ?
[A] > 34.2 µM

[Q] Would you mind telling me what TGI value was observed for O=C(Oc1cncc(Cl)c1)c1cc2ccccc2sc1=O ?
[A] > 100 µM

[Q] Would you mind telling me what TGI value was observed for CN1C2C=CC(=O)C1C(C#N)C2 (stereo unspecified) ?
[A] > 100 µM

[Q] Would you mind telling me what TGI value was observed for COc1c(OC2OC(C)C(O)C(O)C2O)c(OC)c2oc(-c3ccc(O)cc3)cc(=O)c2c1O (stereo unspecified) ?
[A] > 100 µM
